# credit: paper PMC5656653

Test protocol: Biodistribution experiments in normal mice after i.v. injection
Assay type: in vivo
Reported conditions: male, ddY, mouse, in vivo, iv, total radioactivity, Biodistribution of radioactivity, Brain
Where a SMILES comes first, the peptide text is derived from it. [ ]: non-standard residue; d: D form. The star is where a group is joined. DOTA = O=C(O)CN1CCN(CC(=O)O)CCN(CC(=O)*)CCN(CC(=O)O)CC1
We begin with a simple list: items and their reported tissue uptake dose at 1 h.

# Compound, tissue uptake dose at 1 h
rows = [
    ("O=C(O)C[C@@H](NC(=O)[C@@H](CC(=O)O)NC(=O)[C@@H](CC(=O)O)NC(=O)[C@@H](CC(=O)O)NC(=O)[C@@H](CC(=O)O)NC(=O)CN1CCN(CC(=O)O)CCN(CC(=O)O)CCN(CC(=O)O)CC1)C(=O)O [^67Ga-DOTA-(D-Asp)5, metal not drawn] ({DOTA}-[dD][dD][dD][dD][dD]-OH)", "0.02 %ID"),
    ("O=C(O)CC[C@@H](NC(=O)[C@@H](CCC(=O)O)NC(=O)[C@@H](CCC(=O)O)NC(=O)[C@@H](CCC(=O)O)NC(=O)[C@@H](CCC(=O)O)NC(=O)[C@@H](CCC(=O)O)NC(=O)[C@@H](CCC(=O)O)NC(=O)[C@@H](CCC(=O)O)NC(=O)[C@@H](CCC(=O)O)NC(=O)[C@@H](CCC(=O)O)NC(=O)[C@@H](CCC(=O)O)NC(=O)[C@@H](CCC(=O)O)NC(=O)[C@@H](CCC(=O)O)NC(=O)[C@@H](CCC(=O)O)NC(=O)CN1CCN(CC(=O)O)CCN(CC(=O)O)CCN(CC(=O)O)CC1)C(=O)O [^67Ga-DOTA-(D-Glu)14, metal not drawn]", "0.01 %ID"),
]
